# test_context: bacteroides eggerthii, 12 h, 2 µM;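 also: compound levels quantified by LC–MS at the start and end of incubation with the bacterium, indicating biotransformation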
# Description: The drug is tested on Bacteroides eggerthii strain: DSM20697 for biotransformation. The drug concentrations were measured before and after a 12-h incubation by liquid-chromatography-coupled mass spectrometry (LC–MS)
quantity_measured: Bacterial Biotransformation

compound	Bacterial Biotransformation
COc1c(C)c2c(c(O)c1C/C=C(\C)CCC(=O)OCCN1CCOCC1)C(=O)OC2 [MYCOPHENOLATE MOFETIL]	Compound metabolized
CCOc1ccc2nc(S(N)(=O)=O)sc2c1 [ETHOXZOLAMIDE]	Compound metabolized
COCCc1ccc(OCC(O)CNC(C)C)cc1.COCCc1ccc(OCC(O)CNC(C)C)cc1.O=C(O)C(O)C(O)C(=O)O (stereo unspecified) [METOPROLOL TARTRATE]	Compound NOT metabolized
CC(CN(C)C)CN1c2ccccc2CCc2ccccc21.O=C(O)/C=C\C(=O)O (stereo unspecified) [TRIMIPRAMINE MALEATE]	Compound NOT metabolized
O=c1n(CCCN2CCN(c3cccc(Cl)c3)CC2)nc2ccccn12 [TRAZODONE]	Compound NOT metabolized

Need Bacterial Biotransformation, item C#C[C@]1(O)CC[C@H]2[C@@H]3CCC4=Cc5oncc5C[C@]4(C)[C@H]3CC[C@@]21C [DANAZOL]
Compound metabolized

Bacterial Biotransformation lookup needed for CCCCCNC(=N)N/N=C/c1c[nH]c2ccc(OC)cc12.O=C(O)/C=C\C(=O)O [TEGASEROD MALEATE] , thanks.
Compound NOT metabolized

Record request: Bacterial Biotransformation value, item CCc1nn(CCCN2CCN(c3cccc(Cl)c3)CC2)c(=O)n1CCOc1ccccc1 [NEFAZODONE]
Compound NOT metabolized

Bench note: what Bacterial Biotransformation did CC(=O)O[C@]1(C(C)=O)CC[C@H]2[C@@H]3C=C(Cl)C4=CC(=O)[C@@H]5C[C@@H]5[C@]4(C)[C@H]3CC[C@@]21C [CYPROTERONE ACETATE] show?
Compound metabolized

Please give the measured Bacterial Biotransformation for this compound: CCN(CC)C(=O)C1(c2ccccc2)CC1CN (stereo unspecified)
Compound NOT metabolized

Query (compound): O=P(O)(O)O.c1ccc(CN(CC2=NCCN2)c2ccccc2)cc1 [ANTAZOLINE PHOSPHATE] ; field requested: Bacterial Biotransformation
Compound NOT metabolized

Fill blank: measured Bacterial Biotransformation of the compound CCN(C(C)=O)c1cccc(-c2ccnc3c(C#N)cnn23)c1 [ZALEPLON] is ____.
Compound NOT metabolized
